The origin of these recorded values is the supplement of paper PMC9112550.

Tested on: Escherichia coli TOP10
assay.remarks: shrunken log2 fold change of peptide-encoding DNA abundance (4.5 h post-induction vs induction); higher = less antimicrobial activity (less host growth inhibition)
condition.notes: time post-induction: 4.5 h; library: site-saturation at positions 5, 18, 19, 20
experimental.endpoint: shrunken log2 fold change
Lab note: jot the number down without any unit.

chain: RRIRARPPRLPRPRPRPLHCPRP
target.system: Escherichia coli TOP10
shrunken log2 fold change: 0.617
//
chain: RRIRPRPPRLPRPRPRPYNMPRP
target.system: Escherichia coli TOP10
shrunken log2 fold change: -1.44
//
chain: RRIRNRPPRLPRPRPRPGCAPRP
target.system: Escherichia coli TOP10
shrunken log2 fold change: 0.426
//
chain: RRIRIRPPRLPRPRPRPLQEPRP
target.system: Escherichia coli TOP10;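 note: peptides expressed intracellularly from a pBAD plasmid library in pooled LB shake-flask culture, induced with 0.3% L-arabinose, DNA abundance read by NGS, three biological replicates, DESeq2 with apeglm shrinkage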
shrunken log2 fold change: -0.0919

Record lookup: for Escherichia coli TOP10, what shrunken log2 fold change belongs to `RRIRMRPPRLPRPRPRPGKLPRP` ?
0.515

Would you kindly repeat that for `RRIRKRPPRLPRPRPRPANGPRP` ?
0.566

Then what about the sequence `RRIRYRPPRLPRPRPRPRPYPRP` ?
-0.259

Same again, this time with `RRIRHRPPRLPRPRPRPLAFPRP`
-0.2
